Test system: M14 melanoma
measurement_description: NCI-60 one-dose screen, 48 h
condition_label: 10 µM unless noted
Compounds without any hit were thinned out: in the full panel of roughly 83,000, 20% have a hit. Active and inactive are the calls of the source. The calls were made as follows: active = growth percent below 10; inactive = the rest.
Classes used: active, inactive

1. Cc1ccc(/C=C2\CN(C(=O)C(Cl)Cl)C/C(=C\c3ccc(C)cc3)C2=O)cc1 ... active
2. COc1ccc(C2=CN3CC=CCC3CC2=O)cc1 (stereo not given) ... inactive
3. CC1(C)O[C@H]2OC3CCC(=O)CC3(O)[C@H]2O1 (stereo not given in full) ... inactive
4. CN1C(=O)/C(=C/c2ccc(C(=O)Nc3ncc(Cc4ccc(F)cc4)s3)cc2)SC1=S ... inactive
5. COc1ccc(OC)c(-c2cn3nc(-c4c[nH]c5ccc(Br)cc45)sc3n2)c1 ... inactive
